Test system: UACC-62 melanoma
protocol-summary: NCI tumour cell line growth inhibition, 48 h; in the data active means GI50 below about 0.43 µM; inactive means the rest
# output must be one of 1.0 = active, 0.0 = inactive

Could you please tell me the result logged for `COCCn1cc(-c2csc(-c3c[nH]c4ccc(Br)cc34)n2)c2cccnc21` in this assay?
0.0

New cases:
Could you please tell me the result logged for `Fc1ccc(Nc2nc3ccccc3c3occc23)cc1` in this assay?
0.0

Could you please tell me the result logged for `Cc1nccc2c3ccc(OCc4cn(-c5ccc(Cl)cc5)nn4)cc3n(CC(C)C)c12` in this assay?
0.0

Could you please tell me the result logged for `CCN(Cc1ccc(F)cc1)c1ccc(CO)c(OC)c1` in this assay?
0.0

Could you please tell me the result logged for `COc1cc(/C=C/C(=O)c2c(C)nc3ccccc3c2C)ccc1OCCCN1CCN(C(=O)c2ccco2)CC1` in this assay?
0.0

Could you please tell me the result logged for `CN(C)c1ccc(N=C2C=CC(=O)c3ccccc32)cc1` in this assay?
0.0

Could you please tell me the result logged for `CN(C)CCOC(=O)Nc1nc2ccc(Sc3ccccc3)cc2[nH]1` in this assay?
0.0

Could you please tell me the result logged for `COc1ccc(OC)c(/C=C/c2nc(SCc3ccccc3)n(-c3ccc(Cl)cc3)n2)c1` in this assay?
0.0

Could you please tell me the result logged for Cc1ccc(OCC2OC(n3cnc4c(Br)nc(Br)nc43)CC2Oc2ccc(C)cc2)cc1 (stereo not drawn) in this assay?
0.0

Could you please tell me the result logged for CCCCCCCC(=O)[O][Hg][CH2]C1COC([CH2][Hg][O]C(=O)CCCCCCC)CO1 (stereo not drawn) in this assay?
0.0

Could you please tell me the result logged for `Nc1c(F)cc(-c2nc3cc(F)ccc3[se]2)cc1Br` in this assay?
0.0

Could you please tell me the result logged for `C/C(=N/N=C(N)N)c1ccc(NC(=O)Nc2ccc(/C(C)=N/N=C(N)N)cc2)cc1` in this assay?
0.0

Could you please tell me the result logged for `C1C[OH+]CC[OH+]CCNCC[OH+]CC[OH+]CCN1.Cl.[Cl-].[Pt+4]` in this assay?
0.0

Could you please tell me the result logged for `COc1ccc(N(C)c2nc(Cl)nc3cnn(C)c23)cc1` in this assay?
1.0

Could you please tell me the result logged for `COc1cc2c(cc1C)NC(=O)/C2=C\c1c[nH]c2ccccc12` in this assay?
0.0

Could you please tell me the result logged for `Cc1cc(Cl)cc(Cc2cc(Cl)cc(C)c2O)c1O` in this assay?
0.0

Could you please tell me the result logged for `CN1CCN(Cc2cc(NC(=O)c3cccc(C#Cc4cccc5[nH]nc(N)c45)c3)cc(C(F)(F)F)c2)CC1` in this assay?
0.0

Could you please tell me the result logged for `COc1ccc2c(c1)C(=O)c1c-2c(Nc2cccc(C(C)=O)c2)nc2ccccc12` in this assay?
0.0

---

Tested on: A498 renal
protocol-summary: NCI tumour cell line growth inhibition, 48 h
TGI for assorted compounds

Respond only with TGI recorded for CCCNC(=O)N1CC(CN2CCN(c3ccccc3)CC2)O/C1=N/C(=O)Nc1ccccc1 (stereo unspecified)
> 100 µM

Respond only with TGI recorded for `Cn1c(=O)c(Cl)c(N=[N+]=[N-])c2ccccc21`
> 100 µM

Respond only with TGI recorded for `Cc1cccc2c1c(=O)c1c(O)cc(O)cc1n2C`
> 100 µM

Respond only with TGI recorded for `O=c1c2c(F)c(F)c(F)c(F)c2sc2nccn12`
35.1 µM

Respond only with TGI recorded for `COc1ccc(OC)c(/C=C/c2nc(SCc3ccccc3)n(-c3ccc(Cl)cc3)n2)c1`
88.4 µM

Respond only with TGI recorded for `COc1cc2c[n+](C)c3c4cc(OC)c(OC)cc4ccc3c2cc1OC`
> 100 µM

Respond only with TGI recorded for `N/C(=N\S(=O)(=O)c1cc(Cl)c(Oc2ccc([N+](=O)[O-])cc2Cl)c(Cl)c1)Nc1ccc(Cl)cc1`
29.4 µM

Respond only with TGI recorded for CCOC1CC2OC(=O)C1C=C2C(=O)OC (stereo unspecified)
> 100 µM

Respond only with TGI recorded for `[N-]=[N+]=CC(=O)CCC(=O)N(c1ccccc1)c1ccccc1`
> 10 µM

Respond only with TGI recorded for `CCCN1CCC(c2ccc(Nc3nc(Nc4cc(F)ccc4C(N)=O)c4cc[nH]c4n3)c(OC)c2)CC1`
5.07 µM

Respond only with TGI recorded for `C#Cc1cccc(NC(=O)c2ccc(NC(=O)CCl)cc2)c1`
> 82.5 µM
